- Protocol details: PET hydrolysis, aromatic products released after 48 h (umol product/mg enzyme); higher = more PET depolymerization activity
- Condition: substrate: cryPow; 60 °C; pH 7.5
Quantity measured: PET hydrolysis

Please review the following examples before continuing.
Biopolymer sequence	PET hydrolysis
DEIGQAPTASNITGNGSFATTSESISSLVSGFGGGRVYYPTATGRYPVIAISPGFTATWSSLAWIGPRLSSWGFVVVGIETNSIYDQPGSRGNQLLAALNWAVNSSSTAVRSRVDGSRRGVAGHSMGGGGTLEALAADTSGLVKAGVPLAPWNTDKIWSNVSEPVLIVGGQADTIAPVATHSVPFYNTLAGPKTYVELTGASHFFPQTTNATTSRALVSWFKRWLNQDSRFTPYTCGFGGLAVSDFRSNAC [ESM147]	81
ADNPYERGPAPTEASVEAPRGPYAVSETTVSPLAVTGFGGGTVYYPTSTADGTFGAIAVSPGYTGTQSSIAWLGPRLASQGFVVFTIDTLTTLDQPDSRGRQLLAALDYLTQKSSVRGRIDSTRLGVMGHSMGGGGSLEAAKSRPSLQAAIPLTPWNLDKTWPEVATPTLIFGADGDTIAPVATHAEPFYTSLPASLDRAYLELNGATHFTPNTSNTTIAKYSIAWLKRFIDDDTRYEQFLCPLPRPGLTIEEYRGNCPHTS [TEP117]	< 3

Now turn to the next sequence.
Read off the recorded PET hydrolysis for SNPTPTPTPTPTPTPTPGNNPFQRGPNPTLSFIEANSGPYSVRTSRVSSYTSGFGGGTIHYPTGQSGTMGAIVVIPGFVSAESSIEWWGPKLASHGFVVMTIDTNSGFDQPPSRARQINAALDYLVAQNRSSRSPVRGMIDTNRLGVVGWSMGGGGTLRVASEGRIKAAIPLAPWDTTSFRNVKAPTLIFACESDVIAPVGQHASPFYNELPSNISKAFVELNGGSHYCGNGGNSYNDVLSRFGVSWMKRFLDNDTRYSQFLCGPNHTSDRDISEYRGNCNY [ESM042] < 3

Values from the supplement of paper PMC12455559
